# experimental-system: DDR1 (Homo sapiens)
# Sequence (Q08345 19-913): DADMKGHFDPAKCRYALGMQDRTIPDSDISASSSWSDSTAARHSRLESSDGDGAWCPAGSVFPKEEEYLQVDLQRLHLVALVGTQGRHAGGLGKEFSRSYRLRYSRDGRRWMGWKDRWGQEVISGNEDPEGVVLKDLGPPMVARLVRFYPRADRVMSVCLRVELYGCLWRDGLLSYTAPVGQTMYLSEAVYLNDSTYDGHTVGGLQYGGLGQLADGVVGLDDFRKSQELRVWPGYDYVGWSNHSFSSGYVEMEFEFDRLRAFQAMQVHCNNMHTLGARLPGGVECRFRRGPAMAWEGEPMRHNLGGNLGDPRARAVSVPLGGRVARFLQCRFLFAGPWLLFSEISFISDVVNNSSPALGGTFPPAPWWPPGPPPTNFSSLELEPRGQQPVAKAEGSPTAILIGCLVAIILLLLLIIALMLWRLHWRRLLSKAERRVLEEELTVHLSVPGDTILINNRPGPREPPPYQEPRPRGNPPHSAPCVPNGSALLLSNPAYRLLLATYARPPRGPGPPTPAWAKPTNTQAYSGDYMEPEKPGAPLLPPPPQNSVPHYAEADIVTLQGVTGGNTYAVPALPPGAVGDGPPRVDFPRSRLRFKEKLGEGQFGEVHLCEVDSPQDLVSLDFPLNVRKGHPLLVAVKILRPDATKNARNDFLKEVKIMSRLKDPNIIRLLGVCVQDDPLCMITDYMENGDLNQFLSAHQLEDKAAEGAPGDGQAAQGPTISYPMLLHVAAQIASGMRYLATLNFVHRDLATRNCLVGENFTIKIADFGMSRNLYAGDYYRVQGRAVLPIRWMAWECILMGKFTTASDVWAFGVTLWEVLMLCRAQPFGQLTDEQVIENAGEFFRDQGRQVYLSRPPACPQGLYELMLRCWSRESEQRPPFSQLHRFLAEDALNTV
# protocol-description: IC50 inhibitory activity against DDR1 kinase
# Type: biochemical
# run-parameters: read-out: DDR1 IC50
pIC50: −log10 of the molar value.
property-name: pIC50

**Q:** Tell me the measured pIC50 of Cc1ccc(Nc2ncc3c(n2)N(C)C(=O)N(c2cc(NC(=O)c4ccc5c(c4)N(Cc4ccccc4)C(=O)[C@H](CC(C)C)N=C5c4ccccc4)ccc2C)C3)cn1 , please.
**A:** 6.70 to 9.00

###

Kindly supply the reported IC50 values for the records listed here.
# experimental-system: LCK (Homo sapiens)
# Sequence (P06239 whole entry): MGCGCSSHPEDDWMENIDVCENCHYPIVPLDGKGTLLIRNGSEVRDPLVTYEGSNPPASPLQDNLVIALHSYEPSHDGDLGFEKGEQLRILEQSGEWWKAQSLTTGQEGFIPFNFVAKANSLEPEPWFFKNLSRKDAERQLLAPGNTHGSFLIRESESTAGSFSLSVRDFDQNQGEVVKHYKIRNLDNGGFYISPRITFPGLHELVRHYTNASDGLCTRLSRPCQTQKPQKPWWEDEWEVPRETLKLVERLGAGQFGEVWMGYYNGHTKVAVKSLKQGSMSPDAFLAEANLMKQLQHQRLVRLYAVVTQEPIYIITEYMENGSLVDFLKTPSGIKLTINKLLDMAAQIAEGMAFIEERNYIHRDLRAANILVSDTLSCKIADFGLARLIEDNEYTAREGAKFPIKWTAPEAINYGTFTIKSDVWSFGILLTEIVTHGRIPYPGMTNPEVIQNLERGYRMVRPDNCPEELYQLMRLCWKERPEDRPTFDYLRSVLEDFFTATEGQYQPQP
# protocol-description: IC50 inhibitory activity against LCK kinase
# Type: biochemical
# run-parameters: read-out: LCK IC50
Peptide text beside a SMILES is read from it. * marks the point of attachment. X1 = Cc1ccc(Nc2ncc3c(n2)N(C)C(=O)N(c2cc(C(=O)*)ccc2C)C3)cn1

Consider the following illustrative entries.
Cc1ccc(Nc2ncc3c(n2)N(C)C(=O)N(c2cc(NC(=O)c4ccc5c(c4)NC(=O)[C@H](Cc4ccccc4)N=C5c4ccccc4)ccc2C)C3)cn1 | 1 to 200 nM
C=CCCC1=N[C@@H](CC(=O)Nc2ccc(C)c(N3Cc4cnc(Nc5ccc(C)nc5)nc4N(C)C3=O)c2)C(=O)N(C)c2ccccc21 | 1 to 200 nM
Cc1ccc(Nc2ncc3c(n2)N(C)C(=O)N(c2cc(NC(=O)c4ccc5c(c4)N(Cc4ccccc4)C(=O)[C@H](CC(C)C)N=C5c4ccccc4)ccc2C)C3)cn1 | 1 to 200 nM
CC1=N[C@H](Cc2ccccc2)C(=O)Nc2cc(C(=O)Nc3ccc(C)c(N4Cc5cnc(Nc6ccc(C)nc6)nc5N(C)C4=O)c3)ccc21 | 1 to 200 nM
Cc1ccc(Nc2ncc3c(n2)N(C)C(=O)N(c2cc(NC(=O)c4ccc5c(c4)N(C)C(=O)[C@H](CC(C)C)N=C5c4ccccc4)ccc2C)C3)cn1 | 1 to 200 nM

Batch request: IC50 for each of the following compounds.
1. Cc1ccc(Nc2ncc3c(n2)N(C)C(=O)N(c2cc(C(=O)N[C@H](C(=O)N4CCC[C@H]4C(=O)N[C@H](C(=O)N[C@H](C)c4ccccc4)C(C)C)C(C)C)ccc2C)C3)cn1
2. Cc1ccc(Nc2ncc3c(n2)N(C)C(=O)N(c2cc(C(=O)N[C@H](C(=O)N4CCC[C@H]4C(=O)N[C@@H](Cc4ccccc4)C(=O)N[C@@H](CC(C)C)C(=O)N(C)C)C(C)C)ccc2C)C3)cn1 [Example 11] (X1-VPFL-NMe2)
3. C=CCN1C(=O)[C@H](CC(C)C)N=C(c2ccccc2)c2ccc(C(=O)Nc3ccc(C)c(N4Cc5cnc(Nc6ccc(C)nc6)nc5N(C)C4=O)c3)cc21
4. Cc1ccc(Nc2ncc3c(n2)N(C)C(=O)N(c2cc(NC(=O)c4ccc5c(c4)NC(=O)[C@H](Cc4ccccc4C)N=C5c4ccccc4)ccc2C)C3)cn1

**A:**
1. 1 to 200 nM
2. 1 to 200 nM
3. 1 to 200 nM
4. 1 to 200 nM

**Q:** Tell me the measured IC50 of Cc1ccc(Nc2ncc3c(n2)N(C)C(=O)N(c2cc(NC(=O)[C@@H]4CN(C(=O)OCC(Cl)(Cl)Cl)C[C@H]4C(=O)NCc4ccc(Cl)cc4)ccc2C)C3)cn1 , please.
**A:** 1 to 200 nM

Taken from patent US11530221B2.
